Target: NLK (Homo sapiens)
Sequence (Q9UBE8 whole entry): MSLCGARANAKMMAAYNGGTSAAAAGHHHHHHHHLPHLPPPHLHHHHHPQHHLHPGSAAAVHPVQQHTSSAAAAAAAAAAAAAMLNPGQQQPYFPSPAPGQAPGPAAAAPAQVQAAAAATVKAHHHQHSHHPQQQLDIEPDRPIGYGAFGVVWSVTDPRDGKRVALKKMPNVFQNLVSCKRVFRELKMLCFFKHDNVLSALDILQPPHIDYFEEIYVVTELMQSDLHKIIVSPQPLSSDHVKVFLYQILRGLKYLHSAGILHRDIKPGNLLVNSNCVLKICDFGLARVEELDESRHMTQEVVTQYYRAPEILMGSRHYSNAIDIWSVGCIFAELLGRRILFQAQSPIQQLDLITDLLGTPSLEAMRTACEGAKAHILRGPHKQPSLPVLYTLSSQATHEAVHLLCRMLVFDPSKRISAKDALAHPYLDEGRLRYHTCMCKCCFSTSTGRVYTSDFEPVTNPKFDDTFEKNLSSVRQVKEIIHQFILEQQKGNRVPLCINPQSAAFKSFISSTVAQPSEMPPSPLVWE
Experiment: KINOMEscan kinase competition binding assay (DiscoverX)
Details: absence of ATP, three-point titration
From the text: Data are presented as Geomean ± SD.
assay.readout: IC50
State the value, then name its unit.

Data point: Cc1cccc(-c2nn3c(c2-c2ccnc4ccc(C(N)=O)cc24)CCC3)n1.O [galunisertib] ; IC50 = 910 nM

* * *

target: BMPR2 (Homo sapiens, UniProt Q13873); experiment: KINOMEscan kinase competition binding assay (DiscoverX); details: absence of ATP, three-point titration
Sequence (Q13873 27-1038): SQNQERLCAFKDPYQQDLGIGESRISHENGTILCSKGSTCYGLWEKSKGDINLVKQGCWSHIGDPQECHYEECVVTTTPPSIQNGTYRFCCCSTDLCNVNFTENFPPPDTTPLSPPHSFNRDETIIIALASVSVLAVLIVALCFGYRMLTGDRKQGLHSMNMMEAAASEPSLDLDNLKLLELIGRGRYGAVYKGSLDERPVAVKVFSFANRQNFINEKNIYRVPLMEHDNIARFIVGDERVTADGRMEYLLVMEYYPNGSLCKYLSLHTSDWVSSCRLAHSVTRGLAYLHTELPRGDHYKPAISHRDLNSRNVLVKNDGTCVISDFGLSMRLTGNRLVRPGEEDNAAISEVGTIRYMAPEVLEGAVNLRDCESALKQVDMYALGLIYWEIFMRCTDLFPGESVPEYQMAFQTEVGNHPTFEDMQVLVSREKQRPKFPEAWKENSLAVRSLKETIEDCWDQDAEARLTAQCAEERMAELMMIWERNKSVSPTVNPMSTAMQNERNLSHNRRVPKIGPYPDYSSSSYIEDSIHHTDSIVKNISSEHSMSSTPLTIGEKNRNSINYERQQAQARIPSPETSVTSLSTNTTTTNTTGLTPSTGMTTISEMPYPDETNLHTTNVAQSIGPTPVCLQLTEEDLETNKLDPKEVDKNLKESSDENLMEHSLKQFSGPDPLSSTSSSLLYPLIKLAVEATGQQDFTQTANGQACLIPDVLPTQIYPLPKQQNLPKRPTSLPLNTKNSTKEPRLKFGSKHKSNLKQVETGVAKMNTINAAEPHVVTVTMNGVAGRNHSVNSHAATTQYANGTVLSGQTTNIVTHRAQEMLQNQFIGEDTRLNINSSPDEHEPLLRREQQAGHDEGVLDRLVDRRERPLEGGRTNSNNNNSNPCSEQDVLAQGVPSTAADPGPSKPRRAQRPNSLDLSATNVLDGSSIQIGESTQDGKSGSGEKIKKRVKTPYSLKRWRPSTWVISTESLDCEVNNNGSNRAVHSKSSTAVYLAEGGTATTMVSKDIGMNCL
assay.readout: IC50

The molecule Cc1cccc(-c2nn3c(c2-c2ccnc4ccc(C(N)=O)cc24)CCC3)n1.O showed IC50 equal to > 60 µM

* * *

target: Abl1 (Homo sapiens, UniProt P00519); assay: KINOMEscan kinase competition binding assay (DiscoverX); conditions: absence of ATP, three-point titration
Sequence (P00519 whole entry): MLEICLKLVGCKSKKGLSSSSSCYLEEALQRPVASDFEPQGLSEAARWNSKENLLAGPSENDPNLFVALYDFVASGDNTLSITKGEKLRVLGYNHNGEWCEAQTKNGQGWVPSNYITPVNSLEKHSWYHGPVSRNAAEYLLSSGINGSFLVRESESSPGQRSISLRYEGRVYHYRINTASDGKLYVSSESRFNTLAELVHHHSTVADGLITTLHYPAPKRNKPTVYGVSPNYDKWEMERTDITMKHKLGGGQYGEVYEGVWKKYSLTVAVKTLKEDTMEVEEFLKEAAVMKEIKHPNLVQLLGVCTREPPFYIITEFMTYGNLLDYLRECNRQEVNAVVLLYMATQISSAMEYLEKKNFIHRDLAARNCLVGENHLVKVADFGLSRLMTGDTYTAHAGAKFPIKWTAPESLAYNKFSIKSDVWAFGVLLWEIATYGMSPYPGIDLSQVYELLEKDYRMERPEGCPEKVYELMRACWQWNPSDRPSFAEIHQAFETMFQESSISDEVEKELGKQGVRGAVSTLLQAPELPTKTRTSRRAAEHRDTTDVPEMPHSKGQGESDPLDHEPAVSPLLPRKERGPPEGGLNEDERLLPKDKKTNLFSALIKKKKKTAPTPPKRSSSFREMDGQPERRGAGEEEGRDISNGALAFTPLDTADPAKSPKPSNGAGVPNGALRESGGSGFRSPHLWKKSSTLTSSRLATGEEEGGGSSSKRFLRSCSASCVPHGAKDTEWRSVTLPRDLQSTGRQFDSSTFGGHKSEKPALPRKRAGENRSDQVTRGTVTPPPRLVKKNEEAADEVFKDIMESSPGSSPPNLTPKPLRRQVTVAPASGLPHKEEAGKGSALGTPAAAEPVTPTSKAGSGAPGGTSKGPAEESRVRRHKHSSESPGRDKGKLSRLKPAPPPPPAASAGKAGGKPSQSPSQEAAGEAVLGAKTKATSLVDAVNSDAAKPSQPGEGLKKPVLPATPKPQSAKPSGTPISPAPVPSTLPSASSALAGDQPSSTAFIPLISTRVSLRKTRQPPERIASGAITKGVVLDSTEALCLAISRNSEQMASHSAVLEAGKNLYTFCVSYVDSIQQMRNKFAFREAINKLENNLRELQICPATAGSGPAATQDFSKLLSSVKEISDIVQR
assay.readout: pIC50
pIC50 is defined as minus the log10 of a concentration measured in mol/L.

Observed pIC50, Abl1 (Homo sapiens, UniProt P00519), Cc1cccc(-c2nn3c(c2-c2ccnc4ccc(C(N)=O)cc24)CCC3)n1.O [galunisertib] : 6.07

* * *

target: TGFβRII (Homo sapiens, UniProt P37173); experiment: Autophosphorylation kinase assay
Sequence (P37173 23-567): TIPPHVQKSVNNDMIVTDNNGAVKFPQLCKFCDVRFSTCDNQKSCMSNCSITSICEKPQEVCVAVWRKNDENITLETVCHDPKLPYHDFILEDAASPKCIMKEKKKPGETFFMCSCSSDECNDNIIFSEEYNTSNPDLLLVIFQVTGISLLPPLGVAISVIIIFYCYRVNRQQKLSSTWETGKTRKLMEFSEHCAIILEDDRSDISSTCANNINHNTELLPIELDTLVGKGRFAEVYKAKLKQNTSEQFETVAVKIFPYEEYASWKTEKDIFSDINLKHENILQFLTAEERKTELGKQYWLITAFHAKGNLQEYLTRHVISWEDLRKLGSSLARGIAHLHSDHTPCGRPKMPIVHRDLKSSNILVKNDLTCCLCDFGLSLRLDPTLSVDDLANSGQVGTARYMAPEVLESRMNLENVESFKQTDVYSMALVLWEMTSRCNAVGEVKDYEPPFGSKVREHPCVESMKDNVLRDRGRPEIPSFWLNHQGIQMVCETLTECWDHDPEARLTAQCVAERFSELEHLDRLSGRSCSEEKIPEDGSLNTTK
assay.readout: pIC50
# pIC50 is unitless: minus log10 of the molar concentration; print number only

Bench note, TGFβRII (Homo sapiens, UniProt P37173): entry Cc1cccc(-c2nn3c(c2-c2ccnc4ccc(C(N)=O)cc24)CCC3)n1.O , its pIC50 = 5.70

* * *

target: TGFβR2 (Homo sapiens); construct: purchased DiscoverX; test: KINOMEscan kinase competition binding assay (DiscoverX); conditions: absence of ATP, three-point titration; listed as Galunisertib
assay.readout: pIC50
Give only the number. pIC50 is defined as minus log10 of concentration in molar units.

Form: compound = Cc1cccc(-c2nn3c(c2-c2ccnc4ccc(C(N)=O)cc24)CCC3)n1.O [galunisertib] ; pIC50 = 6.68

* * *

target: Alk4/ACVR1B (Homo sapiens, UniProt P36896); construct: purchased DiscoverX; experiment: KINOMEscan kinase competition binding assay (DiscoverX); conditions: absence of ATP, three-point titration
Sequence (P36896 24-505): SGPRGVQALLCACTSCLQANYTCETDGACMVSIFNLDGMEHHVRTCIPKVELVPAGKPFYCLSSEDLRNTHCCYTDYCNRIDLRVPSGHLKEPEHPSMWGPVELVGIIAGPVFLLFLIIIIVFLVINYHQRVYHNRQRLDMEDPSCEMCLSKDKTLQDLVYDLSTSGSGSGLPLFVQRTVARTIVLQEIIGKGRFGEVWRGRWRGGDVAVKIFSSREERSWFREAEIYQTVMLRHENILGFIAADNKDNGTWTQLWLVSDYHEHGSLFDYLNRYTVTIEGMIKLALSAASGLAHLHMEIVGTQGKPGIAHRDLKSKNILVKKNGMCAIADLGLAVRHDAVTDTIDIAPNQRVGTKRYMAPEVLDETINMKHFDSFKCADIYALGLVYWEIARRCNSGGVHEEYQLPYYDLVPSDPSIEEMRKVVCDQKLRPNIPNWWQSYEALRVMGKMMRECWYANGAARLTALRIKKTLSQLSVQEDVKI
assay.readout: IC50 (nM)
Lab book: enter the figure in nM, no units written.

Recorded IC50 (compound Cc1cccc(-c2nn3c(c2-c2ccnc4ccc(C(N)=O)cc24)CCC3)n1.O ): 80

* * *

test system: pSMAD in EMT6-LM2 cells; assay: TGFβ1-induced pSMAD inhibition in EMT6-LM2 cells (ELISA); conditions: Mus musculus, read-out: IC50, pSMAD activity, EMT6-LM2, TGFβ1 10 ng/ml, ELISA
assay.readout: IC50 (nM)
Give the value in nM but do not write nM after it.

Record Cc1cccc(-c2nn3c(c2-c2ccnc4ccc(C(N)=O)cc24)CCC3)n1.O . Reported IC50: 894

* * *

System: pSMAD in 13762 rat mammary carcinoma tumor
Assay: 13762 rat tumor model, pSMAD in tumor tissue
Assay type: in vivo, Fischer 344 rats
Settings: Table 4, read-out: IC50 of pSMAD (%CV)
Protocol: Fischer 344 rats from Taconic Farms weighing 150 to 160 grams were acclimatized for 1 week prior to study initiation and had ad libitum access to food. […] For correlation of pSMAD modulation in 13762 rat mammary carcinoma tumors and PBMCs, data were normalized using an analysis of co-variance of log pSMAD versus log tSMAD and treatment group. […] Percent inhibition was calculated by the following formula: 100-(y/x)*100 where y = normalized pSMAD value and x = mean normalized pSMAD in the vehicle control. […]
assay.readout: IC50 (nM)
All answers are understood in nM, so give the number only.

Summary for this molecule, Cc1cccc(-c2nn3c(c2-c2ccnc4ccc(C(N)=O)cc24)CCC3)n1.O : IC50 is 719
